target.entity: SfurOBP11 (Sogatella furcifera)
Sequence (V5T6E3 entry or part of it): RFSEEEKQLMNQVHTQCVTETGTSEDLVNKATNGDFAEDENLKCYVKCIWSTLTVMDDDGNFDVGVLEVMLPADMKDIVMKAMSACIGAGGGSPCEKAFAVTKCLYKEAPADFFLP
assay.summary: biochemical
Format: binding
conditions.used: ligand concentration 14, replicate 2
measure.name: Fluorescence intensity, fluorescence competitive binding assay, OBP11

(Q) Fluorescence intensity, fluorescence competitive binding assay, OBP11 for `C=C1CC/C=C(\C)CC[C@@H]2[C@@H]1CC2(C)C` ?
(A) 26534

(Q) Fluorescence intensity, fluorescence competitive binding assay, OBP11 for `c1ccc2ccccc2c1` ?
(A) 26869

(Q) Fluorescence intensity, fluorescence competitive binding assay, OBP11 for `CCCCCC=O` ?
(A) 20283

###

target.entity: SfurOBP11 (Sogatella furcifera)
assay.summary: biochemical
Format: binding
conditions.used: ligand concentration 10, replicate 2
Note to self: values exactly at 30000 are yes. So Fluorescence intensity, fluorescence competitive binding assay, OBP11 at or above 30000 is yes, below is no.

COC(=O)c1ccccc1 :: no
O=Cc1ccccc1 :: no
CCCCCCCCCCCCCCCC(=O)OC [MH(methyl hexadecanoate)] :: yes
CCCCCCCC :: no
Cc1ccc(C(C)C)cc1 :: no
CCCCCCCCC=O :: no

(Q) Threshold query (Fluorescence intensity, fluorescence competitive binding assay, OBP11 >= 30000) on `C[C@@H]1CC[C@H]2C(C)(C)[C@H]3C[C@@]12CC[C@@]3(C)O`
(A) yes

(Q) Threshold query (Fluorescence intensity, fluorescence competitive binding assay, OBP11 >= 30000) on `C=C1CC/C=C(\C)CC[C@@H]2[C@@H]1CC2(C)C`
(A) no

(Q) Threshold query (Fluorescence intensity, fluorescence competitive binding assay, OBP11 >= 30000) on `CCCCCC=O`
(A) no

(Q) Threshold query (Fluorescence intensity, fluorescence competitive binding assay, OBP11 >= 30000) on `C=C/C(C)=C/C/C=C(\C)CCC=C(C)C`
(A) yes
